target: dopamine D-1 receptor (Rattus norvegicus); test: D-1 receptor binding assay, competition with [^125 I]SCH-23982 in homogenized rat caudate; conditions: read-out: D-1 Ki; rat caudate homogenate, [^125 I]SCH-23982
Sequence (P18901 whole entry): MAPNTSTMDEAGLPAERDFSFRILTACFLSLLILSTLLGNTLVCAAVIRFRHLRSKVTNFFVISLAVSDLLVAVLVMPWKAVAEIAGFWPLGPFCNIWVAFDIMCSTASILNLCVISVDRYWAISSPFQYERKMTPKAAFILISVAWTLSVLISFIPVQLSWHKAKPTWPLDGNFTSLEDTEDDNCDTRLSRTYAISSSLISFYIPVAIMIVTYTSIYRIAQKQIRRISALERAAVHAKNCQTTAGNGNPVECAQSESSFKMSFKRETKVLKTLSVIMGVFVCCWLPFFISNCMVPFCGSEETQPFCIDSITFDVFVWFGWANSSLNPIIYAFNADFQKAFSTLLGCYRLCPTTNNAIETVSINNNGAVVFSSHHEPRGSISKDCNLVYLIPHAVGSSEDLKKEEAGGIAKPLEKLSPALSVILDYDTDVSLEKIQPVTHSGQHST
Where a name gives a salt, the structure may show the parent alone.

- Compound: "Oc1cc2c(cc1O)C1(CCc3ccccc31)CNCC2 (stereo not shown) [Example 15, hydrobromide]"
  Ki: "650 nM"

====

target: dopamine D-1 receptor (Rattus norvegicus); test: D-1 receptor binding assay, competition with [^125 I]SCH-23982 in homogenized rat caudate
Structures can show the parent of a compound that is named as a salt.
Reported Ki values for the following compounds.
Parameter: Ki (nM)

- Compound: "CN1CCc2cc(O)c(O)cc2C2(CCc3ccccc32)C1 (stereo not shown) [Example 16]"
  Parameter: "Ki"
  Value Reported: 330
- Compound: "Oc1cc2c(cc1O)C1(CCCc3ccccc31)CNCC2 (stereo not shown) [Example 26, hydrobromide]"
  Parameter: "Ki"
  Value Reported: 16200
- Compound: "CN1CCc2cc(O)c(O)cc2C2(CCCCc3ccccc32)C1 (stereo not shown) [Example 34, hydrobromide]"
  Parameter: "Ki"
  Value Reported: 8000
- Compound: "CN1CCc2ccc(O)cc2C2(CCCc3ccccc32)C1 (stereo not shown) [Example 29, hydrochloride]"
  Parameter: "Ki"
  Value Reported: 440
- Compound: "CN1CCc2ccc(O)cc2C2(CCc3ccccc32)C1 (stereo not shown) [Example 14, hydrobromide]"
  Parameter: "Ki"
  Value Reported: 410
- Compound: "Oc1cc2c(cc1Br)CCNCC21CCCc2ccccc21 (stereo not shown) [Example 30, hydrochloride]"
  Parameter: "Ki"
  Value Reported: 680
- Compound: "CN1CCc2ccc(O)cc2C2(CCOc3ccccc32)C1 (stereo not shown) [Example 136, hydrochloride]"
  Parameter: "Ki"
  Value Reported: 1670

====

target: D-1 receptor; assay: D-1 antagonist activity in adenylate cyclase assay (antagonism of dopamine-induced increase in cAMP); conditions: 10 μM dopamine; goldfish retina or rat striatum homogenate
Counter-ions that a name gives are not always drawn.
Parameter: Ki (nM)

- Molecule: "CN1CCc2ccc(O)cc2C2(CCOc3ccccc32)C1 (stereo not shown) [Example 136, hydrochloride]"
  Target Under Test: "D-1 receptor"
  Value Reported: 750
- Molecule: "CSc1cc2c(cc1O)C1(CCCc3ccccc31)CN(C)CC2 (stereo not shown) [Example 11, hydrochloride]"
  Target Under Test: "D-1 receptor"
  Value Reported: 40
- Molecule: "CN1CCc2cc(Br)c(O)cc2C2(CCCc3ccccc32)C1 (stereo not shown) [Example 31, hydrochloride]"
  Target Under Test: "D-1 receptor"
  Value Reported: 20
- Molecule: "COc1cc2c(cc1O)C1(CCOc3ccccc31)CN(C)CC2 (stereo not shown) [Example 135, hydrochloride]"
  Target Under Test: "D-1 receptor"
  Value Reported: 170

====

target: D-1 receptor; assay: D-1 antagonist activity in adenylate cyclase assay (antagonism of dopamine-induced increase in cAMP); settings: 10 μM dopamine; goldfish retina or rat striatum homogenate
Counter-ions that a name gives are not always drawn.

- Compound: "CN1CCc2ccc(O)cc2C2(CCCc3ccccc32)C1 (stereo not shown) [Example 29, hydrochloride]"
  Target Under Test: "D-1 receptor"
  IC50 / nM: 4240
- Compound: "COc1cc2c(cc1O)C1(CCc3ccccc31)CN(C)CC2 (stereo not shown) [Example 25, hydrochloride]"
  Target Under Test: "D-1 receptor"
  IC50 / nM: 130
- Compound: "CN1CCc2cc(O)c(O)cc2C2(CCc3ccccc32)C1 (stereo not shown) [Example 16]"
  Target Under Test: "D-1 receptor"
  IC50 / nM: 510
- Compound: "COc1cc2c(cc1O)C1(CCCc3ccccc31)CN(C)CC2 (stereo not shown) [Example 10, hydrochloride]"
  Target Under Test: "D-1 receptor"
  IC50 / nM: 320
- Compound: "CN1CCc2cc([N+](=O)[O-])c(O)cc2C2(CCc3ccccc32)C1 (stereo not shown) [Example 21, hydrochloride]"
  Target Under Test: "D-1 receptor"
  IC50 / nM: 1380
- Compound: "CN1CCc2cc(O)c(O)cc2C2(CCCc3ccccc32)C1 (stereo not shown) [Example 27, hydrobromide]"
  Target Under Test: "D-1 receptor"
  IC50 / nM: 2290
- Compound: "CSc1cc2c(cc1O)C1(CCCc3ccccc31)CN(C)CC2 (stereo not shown) [Example 11, hydrochloride]"
  Target Under Test: "D-1 receptor"
  IC50 / nM: 230
- Compound: "COc1cc2c(cc1O)C1(CCCCc3ccccc31)CN(C)CC2 (stereo not shown) [Example 32, hydrochloride]"
  Target Under Test: "D-1 receptor"
  IC50 / nM: 3240
- Compound: "COc1cc2c(cc1O)C1(CCCc3ccccc31)CNCC2 (stereo not shown) [Example 9, hydrochloride]"
  Target Under Test: "D-1 receptor"
  IC50 / nM: 15700
- Compound: "CN1CCc2cc(Br)c(O)cc2C2(CCc3ccccc32)C1 (stereo not shown) [Example 18, hydrochloride]"
  Target Under Test: "D-1 receptor"
  IC50 / nM: 50

FYI, the data here is from patent US5158948A.
